target: MPO (Homo sapiens, UniProt P05164); test: Sensitivity of chromogenic substrates: MPO peroxidase activity in buffer solution; assay type: biochemical; conditions: 0.24 mM H2O2, 94 ng/mL MPO, 100 mM phosphate buffer pH 6.0-7.0; read at the substrate's wavelength
Sequence (P05164 165-273): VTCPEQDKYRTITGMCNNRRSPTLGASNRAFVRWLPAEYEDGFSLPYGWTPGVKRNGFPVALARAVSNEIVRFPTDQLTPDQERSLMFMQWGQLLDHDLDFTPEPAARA
Sequence (P05164 279-745): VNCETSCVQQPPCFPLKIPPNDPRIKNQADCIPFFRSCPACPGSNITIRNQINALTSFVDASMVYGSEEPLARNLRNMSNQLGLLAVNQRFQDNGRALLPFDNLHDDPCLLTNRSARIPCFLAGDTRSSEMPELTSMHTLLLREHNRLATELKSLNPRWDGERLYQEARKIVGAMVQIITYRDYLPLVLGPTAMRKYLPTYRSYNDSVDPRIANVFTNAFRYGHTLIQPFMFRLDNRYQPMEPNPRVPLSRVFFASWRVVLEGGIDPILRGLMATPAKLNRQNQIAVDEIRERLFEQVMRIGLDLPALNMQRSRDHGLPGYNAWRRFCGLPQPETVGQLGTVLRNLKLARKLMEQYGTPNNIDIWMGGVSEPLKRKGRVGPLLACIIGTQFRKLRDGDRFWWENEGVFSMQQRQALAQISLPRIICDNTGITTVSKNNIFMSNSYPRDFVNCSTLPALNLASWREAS

molecule	ΔOD/min
Cc1cc(-c2cc(C)c(N)c(C)c2)cc(C)c1N	0.32 ΔOD/min
CN(C)c1ccc2c(c1)Sc1cc(N(C)C)ccc1N2C(=O)NCC(=O)[O-].[Na+]	0.023 ΔOD/min
CN(C)c1ccc(N(C(=O)NCC(=O)[O-])c2ccc(N(C)C)cc2)cc1.[Na+]	0.0012 ΔOD/min
COc1ccccc1O	0.37 ΔOD/min
Nc1ccc(-c2ccc(N)c(N)c2)cc1N	0.0093 ΔOD/min
CC(=O)N1c2ccc(O)cc2Oc2cc(O)ccc21	0.018 ΔOD/min
Cc1cc(-c2ccc(NCC(O)CS(=O)(=O)[O-])c(C)c2)ccc1NCC(O)CS(=O)(=O)[O-].[Na+].[Na+] (stereo not drawn)	0 ΔOD/min
CCCCCCCCCCCCCC[N+](C)(C)Cc1ccccc1.[Cl-]	0 ΔOD/min
